ASSAY_SYSTEM: Human HER3, endogenous, on human cancer cell lines (SK-Br-3, MCF7, BT-474) (human, UniProt P21860 20-1342)
Sequence (P21860 20-1342): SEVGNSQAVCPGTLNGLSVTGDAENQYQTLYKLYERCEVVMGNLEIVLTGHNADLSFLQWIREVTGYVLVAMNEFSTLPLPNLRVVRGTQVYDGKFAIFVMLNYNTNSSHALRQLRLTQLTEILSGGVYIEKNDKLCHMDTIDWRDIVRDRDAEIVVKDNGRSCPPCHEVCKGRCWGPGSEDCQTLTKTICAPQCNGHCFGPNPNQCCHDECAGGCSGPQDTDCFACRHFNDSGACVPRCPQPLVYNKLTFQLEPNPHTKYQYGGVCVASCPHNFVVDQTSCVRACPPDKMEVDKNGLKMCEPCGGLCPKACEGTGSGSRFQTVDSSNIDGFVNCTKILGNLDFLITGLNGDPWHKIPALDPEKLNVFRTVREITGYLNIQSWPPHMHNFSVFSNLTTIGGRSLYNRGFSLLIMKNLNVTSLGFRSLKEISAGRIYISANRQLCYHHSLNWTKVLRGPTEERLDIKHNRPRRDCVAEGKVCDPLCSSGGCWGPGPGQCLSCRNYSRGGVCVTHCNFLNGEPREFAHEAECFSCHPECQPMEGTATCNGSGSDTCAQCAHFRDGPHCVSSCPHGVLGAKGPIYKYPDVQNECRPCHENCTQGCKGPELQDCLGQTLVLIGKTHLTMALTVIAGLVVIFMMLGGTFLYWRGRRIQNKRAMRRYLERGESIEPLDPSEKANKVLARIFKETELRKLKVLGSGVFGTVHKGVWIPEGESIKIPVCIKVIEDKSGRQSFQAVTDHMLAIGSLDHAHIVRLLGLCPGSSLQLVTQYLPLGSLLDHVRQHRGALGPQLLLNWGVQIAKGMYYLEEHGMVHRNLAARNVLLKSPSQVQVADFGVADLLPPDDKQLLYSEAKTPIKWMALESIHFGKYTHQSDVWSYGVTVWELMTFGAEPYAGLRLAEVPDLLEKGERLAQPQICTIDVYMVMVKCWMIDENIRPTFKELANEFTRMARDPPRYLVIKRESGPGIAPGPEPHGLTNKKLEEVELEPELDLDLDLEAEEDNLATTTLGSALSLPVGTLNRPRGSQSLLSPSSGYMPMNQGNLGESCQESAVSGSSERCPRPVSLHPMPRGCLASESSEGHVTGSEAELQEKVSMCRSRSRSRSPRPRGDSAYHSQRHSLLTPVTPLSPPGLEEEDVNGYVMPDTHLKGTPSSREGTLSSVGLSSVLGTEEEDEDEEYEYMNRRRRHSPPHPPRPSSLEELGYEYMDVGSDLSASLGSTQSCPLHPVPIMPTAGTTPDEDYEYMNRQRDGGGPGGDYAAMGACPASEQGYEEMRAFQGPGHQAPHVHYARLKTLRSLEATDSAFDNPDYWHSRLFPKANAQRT
METHOD_SUMMARY: cell-based or functional assay
ASSAY_METRIC: MCF7 pHER3 IC50 (pM)
Express your answer in pM, writing the number without its unit.

q: Param item = MOR12509 (antibody, human IgG1, kappa, V domains shown, tested as IgG) VH: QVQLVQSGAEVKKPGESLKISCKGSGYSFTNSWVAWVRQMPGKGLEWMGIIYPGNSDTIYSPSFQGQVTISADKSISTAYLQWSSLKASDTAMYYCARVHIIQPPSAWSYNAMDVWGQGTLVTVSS VL: DIQMTQSPSSLSASVGDRVTITCRASQSITHYLNWYQQKPGKAPKLLIFGASNLQSGVPSRFSGSGSGTDFTLTISSLQPEDFATYYCQQAFVDPSTTFGQGTKVEIKR ; retrieve measured MCF7 pHER3 IC50.
a: 712

q: Param item = MOR13765 (antibody, human IgG1, kappa, V domains shown, tested as IgG) VH: QVQLVQSGAEVKKPGESLKISCKGSGYSFTGSWVAWVRQMPGKGLEWMGIIYPGTSDTIYSPSFQGQVTISADKSISTAYLQWSSLKASDTAMYYCARVHIIQPPSAWSYNAMDVWGQGTLVTVSS VL: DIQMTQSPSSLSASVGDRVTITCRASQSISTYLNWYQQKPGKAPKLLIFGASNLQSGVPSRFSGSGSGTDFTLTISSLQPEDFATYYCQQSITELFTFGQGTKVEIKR ; retrieve measured MCF7 pHER3 IC50.
a: 374

q: Param item = MOR12616 (antibody, human IgG1, kappa, V domains shown, tested as IgG) VH: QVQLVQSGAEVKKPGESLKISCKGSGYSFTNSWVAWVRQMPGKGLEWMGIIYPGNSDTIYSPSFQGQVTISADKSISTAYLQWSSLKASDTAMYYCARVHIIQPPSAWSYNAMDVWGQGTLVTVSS VL: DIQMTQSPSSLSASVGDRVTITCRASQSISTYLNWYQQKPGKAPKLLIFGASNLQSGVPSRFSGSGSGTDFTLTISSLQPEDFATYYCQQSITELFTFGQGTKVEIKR ; retrieve measured MCF7 pHER3 IC50.
a: 245

q: Param item = MOR13755 (antibody, human IgG1, kappa, V domains shown, tested as IgG) VH: QVQLVQSGAEVKKPGESLKISCKGSGYSFTTYWVAWVRQMPGKGLEWMGIIYPGQSDTIYSPSFQGQVTISADKSISTAYLQWSSLKASDTAMYYCARVHIIQPPSAWSYNAMDVWGQGTLVTVSS VL: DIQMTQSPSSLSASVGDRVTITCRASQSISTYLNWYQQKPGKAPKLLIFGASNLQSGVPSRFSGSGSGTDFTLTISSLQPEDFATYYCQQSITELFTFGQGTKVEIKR ; retrieve measured MCF7 pHER3 IC50.
a: 331

q: Param item = MOR14535 (antibody, human IgG1, kappa, V domains shown, tested as IgG) VH: EVQLVQSGAEVKKPGESLKISCKGSGYSFTTTWVAWVRQMPGKGLEWMGIIYPGLSDTIYSPSFQGQVTISADKSISTAYLQWSSLKASDTAMYYCARVHIIQPPSAWSYNAMDVWGQGTLVTVSS VL: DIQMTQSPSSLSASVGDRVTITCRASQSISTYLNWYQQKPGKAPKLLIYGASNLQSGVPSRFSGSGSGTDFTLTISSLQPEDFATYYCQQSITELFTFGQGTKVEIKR ; retrieve measured MCF7 pHER3 IC50.
a: 533

Reference for the values: patent US20130273029A1
